// merged dataset of IC50 values, system = JNK1α1 (Homo sapiens, UniProt P45983), multiple refs
MEASURED_ATTRIBUTE: IC50

O=C(Cc1cc(C(F)(F)F)c2cccnc2c1)Nc1scc(Br)c1-c1nnc[nH]1 :: 100 to 10000 nM
COc1ccc(NC(=O)Nc2cccc(C(=O)c3c[nH]c4ncc(-c5cccnc5)cc34)c2)cc1 :: ≤ 10000 nM
CNC(=O)c1cc(-n2ncc3cc(Oc4ccccc4Cl)cnc32)cs1 :: 200 to 1000 nM
COc1ccc(Oc2ncc(C(N)=O)c(N[C@@H]3CC[C@@H](C)[C@H](O)C3)n2)cc1 :: 100 to 500 nM
O=C(Cc1cccc2ccccc12)Nc1ccsc1-c1ncn[nH]1 :: 100 to 10000 nM
CS(=O)(=O)Nc1cccc(-c2cnc3[nH]cc(C(=O)c4c(Cl)ccc(NS(C)(=O)=O)c4F)c3c2)c1 :: ≤ 10000 nM
O=C(N[C@@H]1[C@@H]2C[C@@H]3C[C@H]1C[C@@](O)(C3)C2)c1ccc(Cc2cn(-c3ccccn3)c3cc(Cl)ccc3c2=O)cc1 :: 330 nM
CN1CCN([C@H]2CC[C@H](c3cnc4[nH]cc(-c5cnn(C)c5)c4c3)CC2)CC1 :: 191 nM
O=C(NC1COC1)c1cc(-n2ncc3cc(Nc4ccccc4Cl)c(F)cc32)cs1 :: > 1000 nM
CC(C)(N)C(=O)OC1CCN(C(=O)[C@H]2CC[C@H](Nc3nccc(-n4ccc5c(OCCCS(C)(=O)=O)cccc54)n3)CC2)CC1 :: 6.8 nM
CN(C)CCn1cnc(-c2c(Cl)csc2NC(=O)Cn2c(=O)ccc3cc(C(F)(F)F)ccc32)n1 :: < 100 nM
COc1cc(-c2ccnn2C)ccc1Nc1nc(NC2CCCCC2)c2c(C#N)c[nH]c2n1 :: < 100 nM
Cc1ccccc1-c1cccc2c1ccn2-c1ccnc(N[C@H]2CC[C@H](C(=O)N3CCC(O)CC3)CC2)n1 :: 64.7 nM
O=C(Cc1cccc2cnccc12)Nc1scnc1-c1cscn1 :: < 100 nM
CC(C)NC(=O)c1cc(-n2ncc3nc(Nc4ccccc4Cl)ccc32)cs1 :: 200 to 1000 nM
CS(=O)(=O)Nc1cccc(-c2cnc3[nH]cc(C(=O)c4cccc(O)c4F)c3c2)c1 :: ≤ 10000 nM
O=C(c1ccc(O)cc1Cl)c1c[nH]c2ncccc12 :: ≤ 10000 nM
CN1CCC[C@@H]1C(=O)OC1CCN(C(=O)[C@H]2CC[C@H](Nc3nccc(-n4ccc5c(OCCCS(C)(=O)=O)cccc54)n3)CC2)CC1 :: 15 nM
Cn1cnc(-c2c(Cl)csc2NC(=O)Cn2c(=O)ccc3nc(C(F)(F)F)ccc32)n1 :: < 100 nM
Nc1cc(=O)n(C2CCCCC2)c2nc(N[C@H]3CC[C@H](C(=O)N4CCOCC4)CC3)ncc12 :: 31.6 nM
CS(=O)(=O)NCCCn1c(=O)ccc2cnc(NC3CCCCC3)nc21 :: 464 nM
CCCCNC(=O)Nc1ccc(F)c(C(=O)c2c[nH]c3ncc(-c4cccc(S(C)(=O)=O)c4)cc23)c1 :: ≤ 10000 nM
O=C(Cc1cccc2ncsc12)Nc1scc(Br)c1-c1ncn[nH]1 :: < 100 nM
O=C(CN1C(=O)CCc2ncccc21)Nc1scc(Cl)c1-c1nc[nH]n1 :: < 100 nM
